Assay: Estimation of solubility in simulated lung fluid (SLF, pH 7.4) by HPLC
Assay type: physicochemical
Conditions: fassgf or other biorelevant, thermodynamic from solid, SLF pH 7.4, 45° C., 3 hours
OBSERVATION_TYPE: solubility at 3 h (µg/mL)
Numbers only here, please. The scale is µg/mL.

Field solubility at 3 h (entry C=C(NC(=O)C(=C)NC(=O)c1csc(C2=NC3c4csc(n4)C4NC(=O)c5csc(n5)C(C(C)(O)C(C)O)NC(=O)C5CSC(=N5)/C(=C\C)NC(=O)C(C(C)O)NC(=O)c5csc(n5)C3(CC2)NC(=O)C(C)NC(=O)C(=C)NC(=O)C(C)NC(=O)C(C(C)C)NC2C=Cc3c(C(C)O)cc(nc3C2O)C(=O)OC4C)n1)C(N)=O (stereo not shown) [Compound of formula I] ) reads 1.2

* * *

Assay: Pulmonary bioavailability, nose-only exposure lung deposition (Example 21)
Type: in vivo, Guinea pigs
Conditions: guinea pig, in vivo; lung, 3 mg/kg, nose-only, 1 hour nebulization; 2 hours post exposure; read-out: Compound of formula I deposited
OBSERVATION_TYPE: concentration at 2 h
Please report the result as a number followed by the unit.

Field concentration at 2 h (entry C=C(NC(=O)C(=C)NC(=O)c1csc(C2=NC3c4csc(n4)C4NC(=O)c5csc(n5)C(C(C)(O)C(C)O)NC(=O)C5CSC(=N5)/C(=C\C)NC(=O)C(C(C)O)NC(=O)c5csc(n5)C3(CC2)NC(=O)C(C)NC(=O)C(=C)NC(=O)C(C)NC(=O)C(C(C)C)NC2C=Cc3c(C(C)O)cc(nc3C2O)C(=O)OC4C)n1)C(N)=O (stereo not shown) [Compound of formula I] ) reads 1 ng/g

* * *

Experiment: Estimation of solubility in simulated lung fluid (SLF, pH 7.4) by HPLC
Format: physicochemical
Details: fassgf or other biorelevant, thermodynamic from solid, SLF pH 7.4, 60° C., 1 hour
OBSERVATION_TYPE: solubility at 1 h (µg/mL)
Numbers only here, please. The scale is µg/mL.

Field solubility at 1 h (entry C=C(NC(=O)C(=C)NC(=O)c1csc(C2=NC3c4csc(n4)C4NC(=O)c5csc(n5)C(C(C)(O)C(C)O)NC(=O)C5CSC(=N5)/C(=C\C)NC(=O)C(C(C)O)NC(=O)c5csc(n5)C3(CC2)NC(=O)C(C)NC(=O)C(=C)NC(=O)C(C)NC(=O)C(C(C)C)NC2C=Cc3c(C(C)O)cc(nc3C2O)C(=O)OC4C)n1)C(N)=O (stereo not shown) [Compound of formula I] ) reads 0.6

* * *

Assay: Estimation of solubility in simulated lung fluid (SLF, pH 7.4) by HPLC
Type: physicochemical
Conditions: fassgf or other biorelevant, thermodynamic from solid, SLF pH 7.4, 60° C., 2 hours
OBSERVATION_TYPE: solubility at 2 h (µg/mL)
Numbers only here, please. The scale is µg/mL.

Field solubility at 2 h (entry C=C(NC(=O)C(=C)NC(=O)c1csc(C2=NC3c4csc(n4)C4NC(=O)c5csc(n5)C(C(C)(O)C(C)O)NC(=O)C5CSC(=N5)/C(=C\C)NC(=O)C(C(C)O)NC(=O)c5csc(n5)C3(CC2)NC(=O)C(C)NC(=O)C(=C)NC(=O)C(C)NC(=O)C(C(C)C)NC2C=Cc3c(C(C)O)cc(nc3C2O)C(=O)OC4C)n1)C(N)=O (stereo not shown) ) reads 0.7

The measurements presented in this section are drawn from patent US8697653B2.
